# study_target: recombinant human AMPK complex 1 (containing α1β1γ1) (Homo sapiens (Human), UniProt Q13131+Q9Y478)
# Sequence (Q13131 whole entry): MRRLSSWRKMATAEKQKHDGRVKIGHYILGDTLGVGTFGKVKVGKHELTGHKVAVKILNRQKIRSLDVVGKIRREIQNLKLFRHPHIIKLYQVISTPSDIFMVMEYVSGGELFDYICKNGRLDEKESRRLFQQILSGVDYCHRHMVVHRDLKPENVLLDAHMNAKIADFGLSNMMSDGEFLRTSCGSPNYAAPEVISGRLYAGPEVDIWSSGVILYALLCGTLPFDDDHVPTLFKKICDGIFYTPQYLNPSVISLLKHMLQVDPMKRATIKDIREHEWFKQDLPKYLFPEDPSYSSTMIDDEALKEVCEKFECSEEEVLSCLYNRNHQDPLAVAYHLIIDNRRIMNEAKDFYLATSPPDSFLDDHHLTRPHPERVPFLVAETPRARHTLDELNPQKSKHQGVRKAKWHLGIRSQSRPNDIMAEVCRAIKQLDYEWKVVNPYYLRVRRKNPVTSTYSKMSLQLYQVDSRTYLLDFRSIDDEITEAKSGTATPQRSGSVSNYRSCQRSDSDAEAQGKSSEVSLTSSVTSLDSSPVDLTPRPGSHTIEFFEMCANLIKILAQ
# Sequence (Q9Y478 whole entry): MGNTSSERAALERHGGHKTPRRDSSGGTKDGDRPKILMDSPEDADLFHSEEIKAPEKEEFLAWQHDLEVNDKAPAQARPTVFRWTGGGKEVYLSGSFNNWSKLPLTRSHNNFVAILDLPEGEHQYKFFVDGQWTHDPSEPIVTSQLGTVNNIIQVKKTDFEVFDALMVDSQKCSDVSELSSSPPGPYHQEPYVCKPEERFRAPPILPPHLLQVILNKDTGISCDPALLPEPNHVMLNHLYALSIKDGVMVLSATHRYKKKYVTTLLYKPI
# Sequence (P54619 whole entry partner): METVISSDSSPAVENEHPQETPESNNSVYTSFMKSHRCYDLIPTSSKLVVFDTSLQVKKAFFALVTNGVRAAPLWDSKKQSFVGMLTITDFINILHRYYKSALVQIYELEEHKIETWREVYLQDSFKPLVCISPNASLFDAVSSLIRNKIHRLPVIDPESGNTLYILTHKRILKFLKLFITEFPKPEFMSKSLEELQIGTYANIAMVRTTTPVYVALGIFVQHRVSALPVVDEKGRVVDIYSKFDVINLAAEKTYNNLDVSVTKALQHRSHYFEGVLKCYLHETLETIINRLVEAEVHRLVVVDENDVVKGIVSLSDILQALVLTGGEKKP
# method_description: In vitro AMPK activation assay (AMPKSAMSF), complex 1
# Type: biochemical
# measurement_parameters: recombinant human AMPK complex 1 (α1β1γ1)
metric: EC50 (nM)
Please respond with the number in nM and leave the unit unwritten.

CS(=O)(=O)c1ccc(-c2ccc(-c3c(F)cc4[nH]c(O[C@H]5CO[C@H](CO)[C@@H](O)C5)nc4c3F)cc2)cc1    7
CS(=O)(=O)Cc1ccc(-c2ccc(-c3cc4nc(O[C@H]5CO[C@H](CO)[C@@H](O)C5)[nH]c4cc3Cl)cc2)cc1    36

Okay, next one:
Which EC50 value is on record for `CC(C)(O)c1ccc(-c2ccc(-c3c(F)cc4[nH]c(O[C@H]5CO[C@H](CO)[C@@H](O)C5)nc4c3F)cc2)cc1` ? 26
